tested on: SK-MEL30 pERK; test: Phospho-ERK inhibition, AlphaLISA SureFire Ultra p-ERK 1/2; type: cell-based, human; details: Table D-1; % Ymin of pERK IC50 curve
observed property: SK-MEL30 pERK, value in parentheses, % inhibition

chemical structure: COc1ccc(S(=O)(=O)Nc2ccc(F)c(Nc3ncnc4cnc(-n5cnc6c(N)cccc65)nc34)c2F)c(C)c1Cl
measured: (6) %

###

test system: HCT116 pERK; test: Phospho-ERK inhibition, AlphaLISA SureFire Ultra p-ERK 1/2; assay type: cell-based, human; settings: Table 3; lowest value of the pERK IC50 curve
observed property: HCT116 (Ymin %)
Answers are plain numbers, in %.

Answer for every listed entry: what is its HCT116 (Ymin %)? The entries follow.
1. N#Cc1ccccc1S(=O)(=O)Nc1ccc(F)c(Nc2ncnc3cnc(N4CC[C@H](F)C4)nc23)c1F
2. O=S(=O)(Nc1ccc(F)c(Nc2ncnc3cnc(-n4cc(S(=O)(=O)C5CCOCC5)c5ccccc54)nc23)c1F)c1cccc(Cl)c1Cl
3. COC1CCN(c2cccc3c2ncn3-c2ncc3ncnc(Nc4c(F)ccc(NS(=O)(=O)c5cccc(Cl)c5Cl)c4F)c3n2)CC1
4. COc1ccc(S(=O)(=O)Nc2ccc(F)c(Nc3ncnc4cnc(-n5cnc6c(N)cccc65)nc34)c2F)c(C)c1Cl
5. COc1ccc(S(=O)(=O)Nc2ccc(F)c(Nc3ncnc4cnc(N5CC(F)(F)C5)nc34)c2F)cc1
6. Cc1c(S(=O)(=O)Nc2ccc(F)c(Nc3ncnc4cnc(-n5cnc6ccccc65)nc34)c2F)ccc(F)c1F

Result:
1: −4; 2: −15; 3: −4; 4: −0.8; 5: 13; 6: 3

Query: Tell me reported HCT116 (Ymin %) for O=S(=O)(Nc1ccc(F)c(Nc2ncnc3cnc(-n4cnc5ccccc54)nc23)c1F)c1ccc2c(c1)CCO2 , tested with HCT116 pERK.
Result: 2

###

system: HCT116 pERK; assay: Phospho-ERK inhibition, AlphaLISA SureFire Ultra p-ERK 1/2; type: cell-based, human; details: Table 3; lowest value of the pERK IC50 curve
Please go through the items and note down their HCT116 (Ymin %).
Answers are plain numbers, in %.

compound: Cc1c(Cl)cccc1S(=O)(=O)Nc1ccc(F)c(Nc2ncnc3cnc(-n4cnc5ccccc54)nc23)c1F
unit name: %
HCT116 (Ymin %): 0

compound: COc1ccc(S(=O)(=O)Nc2ccc(F)c(Nc3ncnc4cnc(-n5cnc6ccccc65)nc34)c2F)c(C)c1
unit name: %
HCT116 (Ymin %): −4

compound: CCC1(O)CCN(c2cccc3c2ncn3-c2ncc3ncnc(Nc4c(F)ccc(NS(=O)(=O)c5ccc(F)c(F)c5C)c4F)c3n2)CC1
unit name: %
HCT116 (Ymin %): −8

compound: CCC1(O)CCN(c2cccc3c2nnn3-c2ncc3ncnc(Nc4c(F)ccc(NS(=O)(=O)c5cccc(Cl)c5Cl)c4F)c3n2)CC1
unit name: %
HCT116 (Ymin %): 19

compound: CCC1CCN(S(=O)(=O)Nc2ccc(F)c(Nc3ncnc4cnc(-n5cnc6ccccc65)nc34)c2F)C1 (centres unmarked)
unit name: %
HCT116 (Ymin %): −1

compound: CC1CCN(S(=O)(=O)Nc2ccc(F)c(Nc3ncnc4cnc(-n5cnc6ccccc65)nc34)c2F)C1 (centres unmarked)
unit name: %
HCT116 (Ymin %): −2

compound: Cc1c(F)cccc1S(=O)(=O)Nc1ccc(F)c(Nc2ncnc3cnc(-n4nc(C(=O)N(C)CCO)c5ccccc54)nc23)c1F
unit name: %
HCT116 (Ymin %): −5.2

compound: Cc1cccc(S(=O)(=O)Nc2ccc(F)c(Nc3ncnc4cnc(-n5cnc6ccccc65)nc34)c2F)c1Cl
unit name: %
HCT116 (Ymin %): −15

Answer for every listed entry: what is its HCT116 (Ymin %)? The entries follow.
1. Cc1c(F)cccc1S(=O)(=O)Nc1ccc(F)c(Nc2ncnc3cnc(-n4nc(C(=O)N(C)Cc5ccncc5)c5ccccc54)nc23)c1F
2. Cc1c(Cl)cccc1S(=O)(=O)Nc1ccc(F)c(Nc2ncnc3cnc(-n4nnc5ccccc54)nc23)c1F
3. CCc1ccccc1S(=O)(=O)Nc1ccc(F)c(Nc2ncnc3cnc(-n4cnc5ccccc54)nc23)c1F
4. O=S(=O)(Nc1ccc(F)c(Nc2ncnc3cnc(N4CC[C@H](F)C4)nc23)c1F)c1ccc(Cl)cc1Cl
5. CO[C@@H]1CCN(S(=O)(=O)Nc2ccc(F)c(Nc3ncnc4cnc(N5CC[C@H](F)C5)nc34)c2F)C1
6. COc1ccc(S(=O)(=O)Nc2ccc(F)c(Nc3ncnc4cnc(-n5cnc6ccccc65)nc34)c2F)c(C)c1F

Result:
−2.3
−9
−1
11
9
−1
